Taken from the supplement of paper PMC7877785.

# experimental.protocol: self-splicing fitness, log relative to wild type (ln ratio); higher = more splicing; Tetrahymena group I intron in knt gene, E. coli kanamycin selection, DiMSum; sequences stand for … in CUCUCU…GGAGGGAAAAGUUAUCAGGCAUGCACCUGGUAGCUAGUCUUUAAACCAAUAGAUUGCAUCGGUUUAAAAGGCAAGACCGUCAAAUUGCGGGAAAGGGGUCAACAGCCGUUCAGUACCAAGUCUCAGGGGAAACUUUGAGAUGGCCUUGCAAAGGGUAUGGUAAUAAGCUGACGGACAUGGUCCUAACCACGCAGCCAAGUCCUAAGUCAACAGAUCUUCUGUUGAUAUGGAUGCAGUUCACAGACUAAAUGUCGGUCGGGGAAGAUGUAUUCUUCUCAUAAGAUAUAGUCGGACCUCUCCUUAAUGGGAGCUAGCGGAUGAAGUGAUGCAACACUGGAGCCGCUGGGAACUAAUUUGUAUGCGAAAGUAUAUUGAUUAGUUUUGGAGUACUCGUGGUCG;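 also: selection with 25 µg/mL kanamycin versus none on LB agar overnight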
# experimental.context: 37 °C
Please mark Y if the recorded self-splicing fitness (ln) is equal to or greater than -2, and N if it falls below.

seq | label.class
GCGAAGCAAUAUUACGUCCG | Y
GAGUAGCAAUAUUACGGACG | Y
ACCAAGCAAUAUUACGCUUC | Y
GUUGAGCAAUAUUACGCGGU | N
GUUAAGCAAUAUUACGGUAC | Y
UAAUAGCAAUAUUACGGCUC | Y
GCGGAGCAAUAUUACGUCGG | Y
CACAAGCAAUAUUACGCUCC | Y
GGUGAGCAAUAUUACGUUCC | Y
UAAGAGCAAUAUUACGGCGU | N
CGAGAGCAAUAUUACGGUCG | N
CGCAAGCAAUAUUACGAUUA | Y
GGCAAGCAAUAUUACGAGAA | Y
CAGUAGCAAUAUUACGCUCC | Y
